Data provenance is the supplement of paper PMC10567573.

B1: PLK2 (parent)
chain: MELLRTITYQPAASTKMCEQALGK

variants of: B1; assay: protein stability index of a GFP-peptide fusion (GPS, HEK-293T) (PSI 1-6); higher = more stable; details: c terminus: a fixed tail appended;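 further: lentivirally expressed fusions sorted by FACS into six bins by GFP to DsRed ratio, PSI derived from sequencing read proportions per bin multiplied by bin number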
measure: protein stability index

Examples from the recorded data:
sequence-chain: MELLRTITYQPAASTKMCEQALLK [G23L]
measure: protein stability index
assay-result: 3.53
--
sequence-chain: MELLRTITYQPAASTKMCEQAHGK [L22H]
measure: protein stability index
assay-result: 3.36
--
sequence-chain: MELLRTITGQPAASTKMCEQALGK [Y9G]
measure: protein stability index
assay-result: 2.46
--
sequence-chain: MELLRTITYQPAASTKMCEWALGK [Q20W]
measure: protein stability index
assay-result: 2.02
--
sequence-chain: MELLRTITYQPAASTKMCECALGK [Q20C]
measure: protein stability index
assay-result: 3.11

Entry under test: MELLNTITYQPAASTKMCEQALGK [R5N] . Its protein stability index was 3.79

Entry under test: MELLRTITYQYAASTKMCEQALGK [P11Y] . Its protein stability index was 2.69
